- experiment_description: protease stability score; higher = more stable; yeast display proteolysis, trypsin and chymotrypsin;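 note: relative to predicted unfolded state with 0 unfolded-like and 1 meaning tenfold more protease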
Assign class by protease stability score: not lower than 1 means TRUE; lower than 1 means FALSE.

>>> class_label("SEYERDFRYAFNIYARDVLTGDEESLRRLLDPNMRIDVNGVHIHGREHLLQIWHEIRIHHFEIDLKHIEVQGNKIHVHGETHIDGEINGQRDEFKIRDSLLVLKVNGKWIFKRFIVD")
"FALSE"
>>> class_label("SDWDKITKEMAELILTAEETGDFKTLWRLMDPNVKLNIGDKTHHGREEYLKWMHEHLKKVPNLTLKLRDVHVQGDKVHLRVEVEIGDKTIDSEIHLEIINGRIEHLRIIDL")
"FALSE"
>>> class_label("SEDHELVHRFTHFFLRMYFTGDEKEMEDLLDPNTRILWNGKEFHGREEVIEALRYIRSHARIRDFTIHSFEIFDGRAKMDTREHGEIDGRLRTFTLRLHILKVNGRWQFQEIQIE")
"TRUE"
>>> class_label("DEEKRRASELIIHLWHNFLTGNEDRFRELFDPNVKAKLDVGDKSVDHIGRDHVLDWLRLVRHEIRIHHYEHKRERVYGDKWESDGHVDGEFNGRRTETHFEIILVIIDGKLHFLILNFH")
"FALSE"
>>> class_label("DEIEREAKHVVHLLIHALLTGDERLFEELVDPDARLVINGRHYHGREEVNLAMKEWRLHRFEIKDFQYEWQGNKIISRIHTREDGHVDGQRVETRSELVIFLVKINGRWRMEFVEFRFS")
"TRUE"

###

- experiment_description: protease stability score; higher = more stable; yeast display proteolysis, trypsin and chymotrypsin;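 note: relative to predicted unfolded state with 0 unfolded-like and 1 meaning tenfold more protease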
measured_attribute: protease stability score

>>> reported("DDDKKRAEELLRLWHEFFETGDEHDMNRNLDPHAKVDVNGKEIHGREFVSEWLVRKVKFFKGIKLEHKRSHFVNGRAHLHTEINFDGVEFEVIIHSDKINGRWLVHEIIIK")
1.17
>>> reported("DHHEEIMVTIMELLVRWLETGDEKSLVELLDPDVRHDVNGVDLHGREHVSRWMREHLERYDHLEVEITHIEVQGDKVHLDGTLILIFNGRNVVMKVHIHTIIVNGRAHELRFRTE")
0.698
>>> reported("SEIHELAILVLKWLLDSMSTGDEESLRRLLDPHTRIHIDGKDLHGRHFLERILQEIRHEVKEYHIRDVRDINGVVTLDAHVRGNEYFDGRNHEHRTDTRLIIDKINGRWRIRELKFE")
1.12
>>> reported("DEEEEDFRMAEHFIRKSLKTGDERLREELMDPHVRIHQGDKHFHGREDASELHRQFDHIEHVHLKDFHFYNGRVIMHMHVLGHWDGRRTRFDTHVTATKIDGRWIVKEWTII")
0.552
>>> reported("DESKESARSFEDLLQEVRRTGDERKLVNLIDPHVKININGKIFHGWEDLEREFHRIKNIRFHVERMRVVGDKIDVRGTLHVDGQTVDTEIDVYKIDGRWAIESLRIG")
1.43
>>> reported("SEHEKMMREIAKEYIDWFLTGDEELERNLADPDTRLNVDGREHHGMEEVIDLWRRIGLSNVDLRIHHWRAYGEFVYFDGEYTVGDKKRKVHFEYFVVNGRLKEVRVEIR")
1.51

###

Reported protease stability score values follow for various sequences
- experiment_description: protease stability score; higher = more stable; yeast display proteolysis, trypsin and chymotrypsin;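 note: relative to predicted unfolded state with 0 unfolded-like and 1 meaning tenfold more protease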
measured_attribute: protease stability score

>>> reported("SEEKKALDILLKTLIHTHQTGDEHTVRELVDPHVRIDFNGQELHGWEDARRFIVEMRLKHVDLRRVHHQGEKVELDGEVDGTYNGQEFHSKLHIVMRKVNGRWVFSQIEIK")
1.17
>>> reported("DDLEHDHKTVLELLKHLEETGDWDRLAKLADPNVRLQIGDKEWHGRRDMAKVLKRFIEEMRIQHIRFRDMKIQGDKLVFDTELDFEQGDKTVHVRTEIILVVVNGQLKSIEIRIE")
2.44
>>> reported("DDEEKHAHDILRLLFWVLMTGDEEIIRELFDPNVRVHIGDKEIHGWKELSRHTKEMRHHVRDTDEKDRRSDEDEIRLHGELDGELHFDGKRVKHRMDIHIIAVKIDGRWFFKSLYVR")
0.868
>>> reported("DEKKEDIDRMVKEIHTIFATGDEDRFKELLDPNVRVDVDGKKRHGREDATEHFRKWVLTLGIDHSRVHSVHTIDGVVFLEIRFDVNGQTIKVRVLAVKVDGQWLIEEVEIRWK")
2.38
>>> reported("SEEEEEARDILKMLFTALDTGNEEYFLNLIDPNVRISVGNYTIVGREQWTEHMRRVKNMQIDDISIKDIKFQGELLRIHGHLVGRFDGQHSHFHVDIIFRKVNGQWHQKEIIIK")
1.99
>>> reported("DEEERLLEKSIKEEIERNVTGDFRRIHELFDPNMRLDINGQEYMGRDLMVERWQKFKNVRSHIELRHYEIINGKAHVDGHLILYIDGVELRTRTRIIYVKINGRWSIQEIDIT")
1.38
